Provide the recorded IC50 for the entries that follow.
# TEST TARGET: Epidermal growth factor receptor (Homo sapiens)
# Sequence (P00533 whole entry): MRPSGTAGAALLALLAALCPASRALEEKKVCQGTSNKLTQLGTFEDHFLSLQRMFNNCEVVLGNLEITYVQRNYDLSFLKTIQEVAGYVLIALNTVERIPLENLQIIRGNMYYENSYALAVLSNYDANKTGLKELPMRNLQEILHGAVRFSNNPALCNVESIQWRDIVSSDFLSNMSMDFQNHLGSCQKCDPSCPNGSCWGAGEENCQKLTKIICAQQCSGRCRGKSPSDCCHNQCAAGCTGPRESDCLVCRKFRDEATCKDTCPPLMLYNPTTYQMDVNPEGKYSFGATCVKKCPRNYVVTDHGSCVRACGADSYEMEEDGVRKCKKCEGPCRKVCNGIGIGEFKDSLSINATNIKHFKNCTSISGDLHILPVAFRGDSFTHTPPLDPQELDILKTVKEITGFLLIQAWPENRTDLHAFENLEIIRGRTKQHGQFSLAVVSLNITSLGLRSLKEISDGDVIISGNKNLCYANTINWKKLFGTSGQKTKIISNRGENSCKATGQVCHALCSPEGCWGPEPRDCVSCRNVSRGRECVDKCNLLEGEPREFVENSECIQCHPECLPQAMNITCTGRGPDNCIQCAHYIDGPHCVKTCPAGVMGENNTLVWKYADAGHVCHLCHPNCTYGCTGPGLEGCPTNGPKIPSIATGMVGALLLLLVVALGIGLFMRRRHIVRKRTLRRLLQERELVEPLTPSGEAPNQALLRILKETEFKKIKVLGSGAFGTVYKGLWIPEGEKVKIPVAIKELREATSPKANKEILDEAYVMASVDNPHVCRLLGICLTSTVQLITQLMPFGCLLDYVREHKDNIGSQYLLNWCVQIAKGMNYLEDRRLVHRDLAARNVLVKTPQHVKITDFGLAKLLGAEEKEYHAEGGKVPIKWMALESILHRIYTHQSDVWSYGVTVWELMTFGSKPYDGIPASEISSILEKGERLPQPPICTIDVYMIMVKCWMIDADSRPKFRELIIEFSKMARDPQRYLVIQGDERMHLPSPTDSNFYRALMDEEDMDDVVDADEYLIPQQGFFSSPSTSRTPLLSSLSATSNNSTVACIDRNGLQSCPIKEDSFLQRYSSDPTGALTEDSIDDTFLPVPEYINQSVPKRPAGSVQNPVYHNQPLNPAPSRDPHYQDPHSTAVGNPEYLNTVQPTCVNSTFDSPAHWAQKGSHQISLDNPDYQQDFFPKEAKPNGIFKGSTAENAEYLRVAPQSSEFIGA
# EXPERIMENT: Inhibition autophosphorylation of EGFR in human DiFi cells after 2 hrs by ELISA
The answer is to be given in µM; state only the numeric part.

Value of IC50 reported for the compound COc1cc2ncc(C#N)c(Nc3ccc(Cl)cc3F)c2cc1OC is 13.8

Value of IC50 reported for the compound COc1cc2c(C#N)cnc(Nc3cccc(Cl)c3)c2cc1OC is 89.1

Value of IC50 reported for the compound COc1cc2ncc(C#N)c(Nc3cccc(NC(C)=O)c3)c2cc1OC is 69.2

Value of IC50 reported for the compound COc1cc2ncc(C#N)c(Nc3cccc(Cl)c3)c2cc1OC is 0.182

Value of IC50 reported for the compound COc1cc2ncc(C#N)c(Nc3ccccc3Br)c2cc1OC is 4.17

Value of IC50 reported for the compound CCOc1cc2ncc(C#N)c(Nc3ccc(F)c(Cl)c3)c2cc1OCC is 0.977

Value of IC50 reported for the compound COc1cc2ncc(C#N)c(Nc3cccc(Br)c3C)c2cc1OC is 0.832

Value of IC50 reported for the compound COc1cc2ncc(C#N)c(Nc3cccc(N)c3)c2cc1OC is 0.813

Value of IC50 reported for the compound CCOc1cc2c(Nc3cccc(Br)c3)c(C#N)cnc2cc1OC is 33.1

Value of IC50 reported for the compound COc1cc2ncc(C#N)c(Nc3cccc(SC)c3)c2cc1OC is 0.759

Value of IC50 reported for the compound COc1cc2ncc(C(=O)O)c(Nc3cccc(Br)c3)c2cc1OC is 33.9

Value of IC50 reported for the compound COc1cc2ncc(C#N)c(Nc3cccc(C(N)=O)c3)c2cc1OC is 7.76

Value of IC50 reported for the compound COc1cc2ncc(C#N)c(Nc3ccc(C)c(Br)c3)c2cc1OC is 1.78

Value of IC50 reported for the compound COc1cc2ncc(C#N)c(Nc3cccc(O)c3)c2cc1OC is 6.31

Value of IC50 reported for the compound COc1cc2ncc(C#N)c(Nc3ccc(C)c(Cl)c3)c2cc1OC is 1.48

Value of IC50 reported for the compound COc1cc2ncc(C=O)c(Nc3cccc(Br)c3)c2cc1OC is 3.39

Value of IC50 reported for the compound COc1cc2ncc(C#N)c(Nc3ccc(Br)c(C)c3)c2cc1OC is 0.617

Value of IC50 reported for the compound COc1cc2ncc(C#N)c(Nc3cccc(C#N)c3)c2cc1OC is 14.1

---

# TEST TARGET: Epidermal growth factor receptor (Homo sapiens)
# EXPERIMENT: Inhibition autophosphorylation of EGFR in human DiFi cells after 2 hrs by ELISA
ASSAY ENDPOINT: IC50 (µM)
The answer is to be given in µM; state only the numeric part.

Value of IC50 reported for the molecule COc1cc2ncc(C#N)c(Nc3cccc(C(C)C)c3)c2cc1OC is 61.7

Value of IC50 reported for the molecule CCOc1cc2ncc(C#N)c(Nc3cccc(Br)c3)c2cc1OC is 21.4

Value of IC50 reported for the molecule COc1cc2ncc(C#N)c(Nc3ccc(F)cc3)c2cc1OC is 47.9

Value of IC50 reported for the molecule COCOc1cc2ncc(C#N)c(Nc3cccc(Br)c3)c2cc1OCOC is 6.76

Value of IC50 reported for the molecule COc1cc2ncc(C#N)c(Nc3ccc(O)c(Cl)c3)c2cc1OC is 9.12

Value of IC50 reported for the molecule CCOc1cc2ncc(C#N)c(Nc3cccc(Br)c3)c2cc1OCC is 0.417

Data credit: ChEMBL document CHEMBL1795334
